// provenance: patent US20210269480A1

Molecular target: T1, Human Nectin-4 (residues Gly32-Ser349) with C-terminal FLAG tag, biotinylated (human, UniProt Q96NY8 32-349, randomly biotinylated with EZ-Link Sulfo-NHS-LC-LC-Biotin)
T1 construct: range 32-349; Captured through biotin on a streptavidin CM5 chip in the SPR assay; also called PVRL4; not shown: C-terminal FLAG tag
T1 sequence (looked up): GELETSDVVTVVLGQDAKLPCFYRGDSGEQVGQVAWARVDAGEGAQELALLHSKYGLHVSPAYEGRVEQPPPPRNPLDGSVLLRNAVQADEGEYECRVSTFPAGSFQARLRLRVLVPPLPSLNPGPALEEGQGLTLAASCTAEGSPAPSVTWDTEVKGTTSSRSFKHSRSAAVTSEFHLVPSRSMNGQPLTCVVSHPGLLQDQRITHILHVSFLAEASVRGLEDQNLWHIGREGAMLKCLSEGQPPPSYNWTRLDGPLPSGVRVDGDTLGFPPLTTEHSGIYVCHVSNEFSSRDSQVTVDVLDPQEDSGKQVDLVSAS
Experiment: SPR (Biacore), biotinylated human Nectin-4 on streptavidin chip
*1 amine or outer side, *2 acyl side, *3 side chain or, on linkers, in order; H or OH if unused. Bridges are numbered along the chain shown (N, C = ends). Primed or numbered codes have the meaning given here. Where no end group is shown, it is not given here. [ ]: non-standard residue; d: D form. TATA = O=C(CC[*:1])N1CN(C(=O)CC[*:2])CN(C(=O)CC[*:3])C1; 1Nal = N[C@@H](Cc1cccc2ccccc12)C(=O)O; PABC = O=C(OCc1ccc(N[*:1])cc1)[*:2]; Glutaryl = O=C(CCCC(=O)[*:2])[*:1]; Hyp = O=C(O)[C@@H]1C[C@@H](O)CN1; dCya = N[C@H](CS(=O)(=O)O)C(=O)O; hArg = N=C(N)NCCCC[C@H](N)C(=O)O; Cit = NC(=O)NCCC[C@H](N)C(=O)O; MMAE = monomethyl auristatin E; PABC′ = p-aminobenzylcarbamate; βAla = NCCC(=O)O; Sar = CNCC(=O)O
Each item that follows carries a reported log10 of Kd.
Values are log10 of Kd in nM.

- binder: "{MMAE-PABC′-Cit-Val-Glutaryl-βAla}-[Sar][Sar][Sar][Sar][Sar][Sar][Sar][Sar][Sar][Sar]CPF[dD]CM[hArg]NWSTPIWC (linker 11-15-25 via TATA, also called MMAE-PABC-Cit-Val-Glutaryl-BCY7814) [BCY7825]"
  numeric-value: 1.06
- binder: "{MMAE-PABC-Cit-Val-Glutaryl-βAla}-[Sar][Sar][Sar][Sar][Sar]CPF[dD]CM[hArg]NWSWPIWC (linker 6-10-20 via TATA, also called MMAE-PABC-Cit-Val-Glutaryl-BCY7556) [BCY7683]"
  numeric-value: 1.43
- binder: "{MMAE-PABC′-Cit-Val-Glutaryl-βAla}-[Sar][Sar][Sar][Sar][Sar][Sar][Sar][Sar][Sar][Sar]CP[1Nal][dR]CL[hArg]HWSTP[Hyp]WC (linker 11-15-25 via TATA, also called MMAE-PABC-Cit-Val-Glutaryl-BCY8231) [BCY8253]"
  numeric-value: 0.79
- binder: "{MMAE-PABC′-Cit-Val-Glutaryl-βAla}-[Sar][Sar][Sar][Sar][Sar][Sar][Sar][Sar][Sar][Sar]CP[1Nal][dR]CM[hArg]DWSTP[Hyp]WC (linker 11-15-25 via TATA, also called MMAE-PABC-Cit-Val-Glutaryl-BCY8235) [BCY8255]"
  numeric-value: 0.93
- binder: "{MMAE-PABC′-Cit-Val-Glutaryl-βAla}-[Sar][Sar][Sar][Sar][Sar][Sar][Sar][Sar][Sar][Sar]CP[1Nal][dCya]CM[hArg]DWSTP[Hyp]WC (linker 11-15-25 via TATA, also called MMAE-PABC-Cit-Val-Glutaryl-BCY8269) [BCY8783]"
  numeric-value: -0.09
- binder: "{MMAE-PABC-Cit-Val-Glutaryl-βAla}-[Sar][Sar][Sar][Sar][Sar][Sar][Sar][Sar][Sar][Sar]CP[1Nal][dD]CM[hArg]DWSTP[Hyp]WC (linker 11-15-25 via TATA, also called BT8009; MMAE-PABC-Cit-Val-Glutaryl-BCY8234) [BCY8245]"
  numeric-value: 0.71

Next up:
Query block: Item {MMAE-PABC′-Cit-Val-Glutaryl-βAla}-[Sar][Sar][Sar][Sar][Sar][Sar][Sar][Sar][Sar][Sar]CP[1Nal][dR]CM[hArg]NWSTP[Hyp]WC (linker 11-15-25 via TATA, also called MMAE-PABC-Cit-Val-Glutaryl-BCY8232) [BCY8254] has what recorded log10 of Kd?
Result block: 0.61
